Biological target: T1, Ebola virus VP30 110-272 protein (MBP tag removed) (Ebola virus (EBOV)), Q05323
T1 chain: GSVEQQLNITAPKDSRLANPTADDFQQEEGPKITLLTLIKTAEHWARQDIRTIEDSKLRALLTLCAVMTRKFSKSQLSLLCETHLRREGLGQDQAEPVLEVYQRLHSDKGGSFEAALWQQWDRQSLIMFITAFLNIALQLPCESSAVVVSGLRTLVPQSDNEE
Assay: fluorescence polarisation
readout: pIC50
Note on units: pIC50 is unitless, being -log10 of a concentration expressed in mol/L.

Input line: # input binder: PTVAPPAPVYR (modifications not checked) [unlabeled NP peptide (NP-derived VP30-binding peptide)] ; wanted: its pIC50
Output line: 6.48
